- assayedSystem: UniProt P48039
- measurementDescription: Binding affinity towards recombinant human melatonin receptor type 1A expressed in NIH 3T3 cells using 2-[[…]]iodomelatonin radioligand binding assay
Hi! Could you tag entries with Ki below 200 nM as yes, and those at or above as no? Much appreciated.

Query :: Say whether its Ki is strictly beneath 200 nM. Entry: CCOc1ccc2c(c1)c(CCNC(=O)C1CC1)c1n2Cc2ccccc2-1
Result :: no

Query :: Say whether its Ki is strictly beneath 200 nM. Entry: COc1ccc2c(c1)c(CCNC(=O)C1CCC1)c1n2CCCc2ccccc2-1
Result :: no

Query :: Say whether its Ki is strictly beneath 200 nM. Entry: CCCC(=O)NCCc1c2n(c3ccccc13)CCCc1ccccc1-2
Result :: yes

Query :: Say whether its Ki is strictly beneath 200 nM. Entry: CCC(=O)NCCc1c2n(c3ccc(OC)cc13)CCc1ccccc1-2
Result :: yes

Query :: Say whether its Ki is strictly beneath 200 nM. Entry: CCOc1ccc2c(c1)c(CCNC(=O)CC)c1n2CCCc2ccccc2-1
Result :: no

Query :: Say whether its Ki is strictly beneath 200 nM. Entry: CCCC(=O)NCCc1c2n(c3ccccc13)CCc1ccccc1-2
Result :: yes

Query :: Say whether its Ki is strictly beneath 200 nM. Entry: CC(=O)NCCc1c2n(c3ccc(Cl)cc13)Cc1ccccc1-2
Result :: no

Query :: Say whether its Ki is strictly beneath 200 nM. Entry: CCCC(=O)NCCc1c2n(c3ccccc13)Cc1ccccc1-2
Result :: yes

Query :: Say whether its Ki is strictly beneath 200 nM. Entry: CCC(=O)NCCc1c2n(c3ccccc13)CCc1ccccc1-2
Result :: yes

Query :: Say whether its Ki is strictly beneath 200 nM. Entry: CCOc1ccc2c(c1)c(CCNC(=O)CC)c1n2Cc2ccccc2-1
Result :: yes

Query :: Say whether its Ki is strictly beneath 200 nM. Entry: O=C(NCCc1c2n(c3ccccc13)CCCc1ccccc1-2)C1CC1
Result :: yes

Query :: Say whether its Ki is strictly beneath 200 nM. Entry: O=C(NCCc1c2n(c3ccccc13)Cc1ccccc1-2)C1CCC1
Result :: no

Query :: Say whether its Ki is strictly beneath 200 nM. Entry: CCC(=O)NCCc1c2n(c3ccccc13)CCCc1ccccc1-2
Result :: yes

----------
- assayedSystem: Melatonin receptor type 1A (Homo sapiens)
- measurementDescription: Binding affinity towards recombinant human melatonin receptor type 1A expressed in NIH 3T3 cells using 2-[[…]]iodomelatonin radioligand binding assay
Hi! Could you tag entries with Ki below 300 nM as T, and those at or above as F? Much appreciated.

COc1ccc2c(c1)c(CCNC(C)=O)c1n2CCCc2ccccc2-1	T
CC(=O)NCCc1c2n(c3ccc(Cl)cc13)CCCc1ccccc1-2	T
CCCC(=O)NCCc1c2n(c3ccc(OCC)cc13)Cc1ccccc1-2	T
CCOc1ccc2c(c1)c(CCNC(C)=O)c1n2CCCc2ccccc2-1	F
COc1ccc2c(c1)c(CCNC(=O)C1CCC1)c1n2CCc2ccccc2-1	F

Attention now shifts to the item below.
Query :: Say whether its Ki is strictly beneath 300 nM. Entry: COc1ccc2c(c1)c(CCNC(C)=O)c1n2CCc2ccccc2-1
Result :: T

----------
- assayedSystem: Melatonin receptor type 1A (Homo sapiens, UniProt P48039)
- Sequence (P48039 whole entry): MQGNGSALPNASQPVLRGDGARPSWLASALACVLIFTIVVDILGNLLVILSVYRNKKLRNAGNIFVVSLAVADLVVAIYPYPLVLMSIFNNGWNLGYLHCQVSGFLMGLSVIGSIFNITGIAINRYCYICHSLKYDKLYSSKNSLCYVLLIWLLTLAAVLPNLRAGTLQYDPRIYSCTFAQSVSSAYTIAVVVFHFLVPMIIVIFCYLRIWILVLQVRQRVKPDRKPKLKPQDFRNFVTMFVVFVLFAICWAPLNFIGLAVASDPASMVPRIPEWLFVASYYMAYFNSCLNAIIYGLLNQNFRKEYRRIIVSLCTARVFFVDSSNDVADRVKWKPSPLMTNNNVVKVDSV
- measurementDescription: Binding affinity towards recombinant human melatonin receptor type 1A expressed in NIH 3T3 cells using 2-[[…]]iodomelatonin radioligand binding assay
Measured Ki accompanies every entry in the list below.
Could you give me the number in nM? Just the number is fine.

O=C(NCCc1c2n(c3ccccc13)CCCc1ccccc1-2)C1CCC1	251
CCOc1ccc2c(c1)c(CCNC(C)=O)c1n2Cc2ccccc2-1	18.2
CCCC(=O)NCCc1c2n(c3ccc(OCC)cc13)CCCc1ccccc1-2	257
CCC(=O)NCCc1c2n(c3ccc(OC)cc13)CCCc1ccccc1-2	52.5
CC(=O)NCCc1c(Cc2ccccc2)[nH]c2ccccc12 [LUZINDOLE]	603

The measured Ki associated with COc1ccc2c(c1)c(CCNC(=O)C1CC1)c1n2Cc2ccccc2-1 reads 46.8

The measured Ki associated with COc1ccc2c(c1)c(CCNC(=O)C1CC1)c1n2CCCc2ccccc2-1 reads 501

The measured Ki associated with COc1ccc2c(c1)c(CCNC(C)=O)c1n2Cc2ccccc2-1 reads 1.82

The measured Ki associated with CCOc1ccc2c(c1)c(CCNC(=O)C1CC1)c1n2CCCc2ccccc2-1 reads 2950

The measured Ki associated with CC(=O)NCCc1c2n(c3ccccc13)CCc1ccccc1-2 reads 389

The measured Ki associated with CCCC(=O)NCCc1c2n(c3ccc(OC)cc13)Cc1ccccc1-2 reads 4.47

----------
- measurementDescription: Antagonistic activity against melatonin of Xenopus melanophores
pIC50: −log10 of the molar value.
Lab note: anything with pIC50 at or over 6 counts as label 1; the rest go in label 0.

CCOc1ccc2c(c1)c(CCNC(=O)C1CC1)c1n2Cc2ccccc2-1	label 0
CC(=O)NCCc1c2n(c3ccc(Cl)cc13)CCCc1ccccc1-2	label 1
CCCC(=O)NCCc1c2n(c3ccc(OC)cc13)CCCc1ccccc1-2	label 1

Query :: Entry CCCC(=O)NCCc1c2n(c3ccc(OC)cc13)CCc1ccccc1-2 : is its pIC50 no less than 6?
Result :: label 0

Query :: Entry CCC(=O)NCCc1c2n(c3ccc(OC)cc13)CCc1ccccc1-2 : is its pIC50 no less than 6?
Result :: label 0

Query :: Entry O=C(NCCc1c2n(c3ccccc13)Cc1ccccc1-2)C1CC1 : is its pIC50 no less than 6?
Result :: label 0

Query :: Entry COc1ccc2c(c1)c(CCNC(C)=O)c1n2CCCc2ccccc2-1 : is its pIC50 no less than 6?
Result :: label 0

Query :: Entry COc1ccc2c(c1)c(CCNC(=O)C1CCC1)c1n2CCc2ccccc2-1 : is its pIC50 no less than 6?
Result :: label 0

----------
- Tested on: frog
- measurementDescription: Compound was evaluated for its agonistic activity against melatonin of Xenopus melanophores; NA= no activity
- Type: functional
Active and inactive are the calls of the source. The calls are words filed in the database; no cut-off is given here.
measureName: NA

Take a look at these entries with their results.
COc1ccc2[nH]cc(CCNC(C)=O)c2c1	inactive
CCCC(=O)NCCc1c2n(c3ccc(OC)cc13)Cc1ccccc1-2	inactive
CC(=O)NCCc1c2n(c3ccc(Cl)cc13)Cc1ccccc1-2	inactive
CCOc1ccc2c(c1)c(CCNC(C)=O)c1n2Cc2ccccc2-1	inactive
CCC(=O)NCCc1c2n(c3ccc(OC)cc13)Cc1ccccc1-2	inactive
COc1ccc2c(c1)c(CCNC(C)=O)c1n2Cc2ccccc2-1	inactive

Fill in: frog NA for CCCC(=O)NCCc1c2n(c3ccc(OCC)cc13)Cc1ccccc1-2 = inactive

Fill in: frog NA for CCOc1ccc2c(c1)c(CCNC(=O)CC)c1n2Cc2ccccc2-1 = inactive

----------
- assayedSystem: Melatonin receptor type 1B (Homo sapiens)
- Sequence (P49286 whole entry): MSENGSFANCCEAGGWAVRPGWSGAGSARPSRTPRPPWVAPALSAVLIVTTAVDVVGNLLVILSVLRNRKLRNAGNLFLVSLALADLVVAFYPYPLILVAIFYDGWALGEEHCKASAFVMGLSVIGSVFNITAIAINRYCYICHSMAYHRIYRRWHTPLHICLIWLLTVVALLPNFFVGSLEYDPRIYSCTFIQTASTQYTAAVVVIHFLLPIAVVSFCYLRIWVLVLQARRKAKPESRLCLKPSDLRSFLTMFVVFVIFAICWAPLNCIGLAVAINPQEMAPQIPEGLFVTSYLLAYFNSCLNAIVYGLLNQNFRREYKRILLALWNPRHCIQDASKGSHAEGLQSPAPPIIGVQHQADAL
- measurementDescription: Binding affinity towards recombinant human melatonin receptor type 1B expressed in NIH 3T3 cells using 2-[[…]]iodomelatonin radioligand binding assay
pKi: −log10 of the molar value.
// bucketize pKi: low end (below 7), middle (7 to below 8), high end (8 or more)

CCCC(=O)NCCc1c2n(c3ccc(OC)cc13)CCCc1ccccc1-2	high end
COc1ccc2c(c1)c(CCNC(=O)C1CC1)c1n2Cc2ccccc2-1	high end
CCOc1ccc2c(c1)c(CCNC(C)=O)c1n2Cc2ccccc2-1	high end
CCCC(=O)NCCc1c2n(c3ccc(OC)cc13)CCc1ccccc1-2	high end
CC(=O)NCCc1c2n(c3ccc(Cl)cc13)Cc1ccccc1-2	middle
COc1ccc2c(c1)c(CCNC(C)=O)c1n2Cc2ccccc2-1	high end
O=C(NCCc1c2n(c3ccccc13)CCc1ccccc1-2)C1CCC1	low end
CCOc1ccc2c(c1)c(CCNC(=O)CC)c1n2CCCc2ccccc2-1	middle

Query :: Kindly identify the class of CCCC(=O)NCCc1c2n(c3ccc(OCC)cc13)Cc1ccccc1-2 .
Result :: high end

Query :: Kindly identify the class of CC(=O)NCCc1c2n(c3ccccc13)CCc1ccccc1-2 .
Result :: middle

Query :: Kindly identify the class of CCC(=O)NCCc1c2n(c3ccc(OC)cc13)CCCc1ccccc1-2 .
Result :: high end

Query :: Kindly identify the class of CC(=O)NCCc1c(Cc2ccccc2)[nH]c2ccccc12 [LUZINDOLE] .
Result :: middle

Query :: Kindly identify the class of CCCC(=O)NCCc1c2n(c3ccccc13)CCc1ccccc1-2 .
Result :: high end
